Cited source: patent US20240309109A1

# SYSTEM_UNDER_TEST: T1, human CD38 on cells (human, UniProt P28907 1-300)
# T1 construct: The cell that carried CD38 is named under assay in each row; also called CD38 on Raji, RPMI8226, OPM2, CCRF-CEM, human erythrocytes, CD38 CHO-K1 transfectants
# ASSAY_NAME: FACS Scatchard on OPM2 cells, IgG format
OBSERVED_PROPERTY: pEC50
Friendly reminder that pEC50 comes from taking -log10 of the concentration in mol/L.

BINDER	pEC50
MOR03087 IgG1 (antibody, V domains shown) VH: QVQLVESGGGLVQPGGSLRLSCAASGFTFSSYYMNWVRQAPGKGLEWVSGISGDPSNTYYADSVKGRFTISRDNSKNTLYLQMNSLRAEDTAVYYCARDLPLVYTGFAYWGQGTLVTVSS VL: DIELTQPPSVSVAPGQTARISCSGDNLRHYYVYWYQQKPGQAPVLVIYGDSKRPSGIPERFSGSNSGNTATLTISGTQAEDEADYYCQTYTGGASLVFGGGTKLTVLG	8.24

Read the next record carefully.
If you can, please state the reported pEC50 value of MOR06186 IgG (antibody, V domains shown) VH: QVQLVESGGGLVQPGGSLRLSCAASGFTFSSYYMNWVRQAPGKGLEWVSAINLSGSAKYYADSVKGRFTISRDNSKNTLYLQMNSLRAEDTAVYYCARDLPLVYTGFAYWGQGTLVTVSS VL: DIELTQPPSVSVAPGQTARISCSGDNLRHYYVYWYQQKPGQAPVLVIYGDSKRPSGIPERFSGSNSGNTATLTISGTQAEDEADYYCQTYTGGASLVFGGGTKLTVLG .
7.81
